Read-out: Tumor necrosis factor receptor superfamily member 6 (Homo sapiens) (UniProt P25445)
assay.text: LTEA_HepaRG_FAS: Life Technologies and Expression Analysis (LTEA) Assay for Fas cell surface death receptor (FAS) using HepaRG (AID 2283447)
measurement.context: mRNA level, 48 h; actives raise or lower the signal
Calls of active or inactive are those of the source. Rule for the calls: active = hit-call score of the fitted dose curve at least 0.9, where 1 is the maximum; inactive = score below 0.9.

compound: CC(C)=CCC/C(C)=C\CO
AC50: inactive
--
compound: CCc1cc(SCc2sc(-c3ccc(C(F)(F)F)cc3)nc2CN2CCN(c3ccc(OC)cc3)CC2)ccc1OCC(=O)O
AC50: 26.2 µM (active)
--
compound: COc1ccc(-n2nc(C(F)F)cc2-c2ccc(S(C)=O)cc2)cc1 (centres undefined)
AC50: inactive
--
compound: CC(=O)OCCC(C)C
AC50: inactive
